What AC50 was measured for each of the following?
Tested on: E. coli mixed culture (wild-type GFP + h34 RFP) total growth, OD600, 24 h
TEST_DESCRIPTION: growth inhibition of wild-type GFP E. coli, dose response, h34 mutant RFP, cherry-pick (AID 977624);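 also: wild-type GFP strain co-cultured with humanized h34 ribosome RFP strain in same well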
EXPERIMENTAL_CONTEXT: E. coli mixed culture (wild-type GFP + h34 RFP), 24 h; measured here: total OD600 growth
Records with an inconclusive call do not appear.

Problem: # get_value(readout='AC50', item= COc1ccccc1NC(=O)CSc1nccn1Cc1ccc(F)cc1 )
Result: > 100 µM

Problem: # get_value(readout='AC50', item= CCc1ccc(C(=O)Nc2cccnc2Oc2ccc(Cl)cc2)cc1 )
Result: > 100 µM

Problem: # get_value(readout='AC50', item= CC(=O)N1CCN(c2cc(N3CCCC3)c(F)cc2[N+](=O)[O-])CC1 )
Result: > 100 µM

Problem: # get_value(readout='AC50', item= CC(=O)c1cccc(NC(=O)COC(=O)CCC(=O)c2ccc(F)cc2)c1 )
Result: > 100 µM

Problem: # get_value(readout='AC50', item= CC(=O)Nc1cccc(-c2ccnc3c2CC(C(=O)Nc2ccc4c(c2)OCO4)O3)c1 (stereo not given) )
Result: > 100 µM

Problem: # get_value(readout='AC50', item= CCSc1nc2ccccc2c(=O)n1CCc1ccc(OC)c(OC)c1 )
Result: > 100 µM

Problem: # get_value(readout='AC50', item= CCn1cc(CCC(=O)NCCc2ccccc2)c2ccccc21 )
Result: > 100 µM

Problem: # get_value(readout='AC50', item= C=CCn1c(SCC(=O)Nc2ccc3c(c2)OCCO3)nnc1-c1ccco1 )
Result: > 100 µM

Problem: # get_value(readout='AC50', item= Cc1cc(C)cc(NC(=O)c2cccc(NC(=O)c3ccco3)c2)c1 )
Result: > 100 µM

Problem: # get_value(readout='AC50', item= O=C(Nc1ccc(F)cc1)N1CCCCN2[C@@H](CO)[C@H](c3ccc(-c4ccncc4)cc3)[C@@H]2C1 )
Result: > 100 µM

Problem: # get_value(readout='AC50', item= Cc1sc2ncnc(N3CCCC(C)C3)c2c1C (stereo not given) )
Result: > 100 µM

Problem: # get_value(readout='AC50', item= COc1ccc(NC(=O)Nc2cccc3c2O[C@H](CN(C)S(=O)(=O)c2ccc(Cl)cc2)[C@H](C)CN([C@@H](C)CO)C3=O)cc1 )
Result: > 100 µM

Problem: # get_value(readout='AC50', item= CN1CCN(C(=O)C[C@@H]2CC[C@@H]3[C@H](COC[C@H](O)CN3C(=O)Nc3ccc(Cl)cc3)O2)CC1 )
Result: > 100 µM

Problem: # get_value(readout='AC50', item= COc1ccc(-c2nc(NC(C)=O)sc2-c2ccccc2)cc1 )
Result: > 100 µM

Problem: # get_value(readout='AC50', item= COc1cccc(N2CCN(c3ccc(S(=O)(=O)N4CCN(C)CC4)cc3[N+](=O)[O-])CC2)c1 )
Result: > 100 µM

Problem: # get_value(readout='AC50', item= Cc1ccccc1COc1ccc(-c2nn[nH]n2)cc1 )
Result: > 100 µM

Problem: # get_value(readout='AC50', item= CCOC(=O)c1c(C)[nH]c(C)c1S(=O)(=O)NCCN1CCN(c2ccccc2F)CC1 )
Result: > 100 µM

Problem: # get_value(readout='AC50', item= O=C(c1cnc(Cc2c[nH]c3ccccc23)c(I)c1)N1CCCCC1 )
Result: > 100 µM

Problem: # get_value(readout='AC50', item= CCn1c(NC(=O)c2nn(C)cc2Br)nc2ccccc21 )
Result: 50.3 µM

Problem: # get_value(readout='AC50', item= O=C1c2cccc(OCC(=O)N3CCCc4ccccc43)c2CCN1Cc1cccnc1 )
Result: > 100 µM

Problem: # get_value(readout='AC50', item= Clc1ccc2nc(CN3CCCc4ccccc43)cn2c1 )
Result: 36.1 µM

Problem: # get_value(readout='AC50', item= N#Cc1cccc(-c2ccc3c(c2)[C@H]2[C@H](CCN2C(=O)c2ccccc2F)[C@H](CO)N3)c1 )
Result: > 100 µM

Problem: # get_value(readout='AC50', item= CCOc1ccc(CCNC(=O)CCn2ccc3cc(S(=O)(=O)N4CCCC4)ccc32)cc1 )
Result: > 100 µM

Problem: # get_value(readout='AC50', item= O=C(Nc1cc(S(=O)(=O)N2CCOCC2)ccc1N1CCOCC1)c1ccc([N+](=O)[O-])s1 )
Result: > 100 µM

Problem: # get_value(readout='AC50', item= CN(C)Cc1nc2ccccc2c(=O)n1Cc1nc(-c2cccc([N+](=O)[O-])c2)cs1 )
Result: > 100 µM

Problem: # get_value(readout='AC50', item= Cc1cccc(-c2ccc([C@H]3[C@H](CO)N4CCCCN(S(=O)(=O)c5ccccc5C)C[C@@H]34)cc2)c1 )
Result: > 52 µM

Problem: # get_value(readout='AC50', item= CCCN(Cc1ccco1)S(=O)(=O)c1ccc(OC)c(OC)c1 )
Result: > 100 µM

Problem: # get_value(readout='AC50', item= CC(=O)Nc1cccc(NC(=O)CSc2ccc(-c3cccnc3)nn2)c1 )
Result: > 100 µM

Problem: # get_value(readout='AC50', item= CCOC(=O)c1nc(C)sc1-c1ccnn1S(=O)(=O)c1cccc(Cl)c1 )
Result: 52.2 µM

Problem: # get_value(readout='AC50', item= Cc1ccc(C2(c3noc(CN(C)Cc4cccnc4)n3)CCCC2)cc1 )
Result: > 100 µM

Problem: # get_value(readout='AC50', item= CO[C@@H]1CN(C)C(=O)c2cc(NC(=O)C3CCCC3)ccc2OC[C@@H](C)N(C(=O)Nc2ccc(C(F)(F)F)cc2)C[C@H]1C )
Result: > 100 µM

Problem: # get_value(readout='AC50', item= CCCCNc1ccc2c(c1)OC[C@@H](Cc1ccccc1)NS2(=O)=O )
Result: 44.4 µM

Problem: # get_value(readout='AC50', item= O=S(=O)(c1ccccc1)N1CC[C@@H]2[C@H](CO)Nc3ccc(Br)cc3[C@@H]21 )
Result: > 100 µM

Problem: # get_value(readout='AC50', item= O=c1[nH]c(C2CCN(S(=O)(=O)c3ccc4c(c3)OCCO4)CC2)nc2c1nnn2Cc1ccccc1F )
Result: > 100 µM

Problem: # get_value(readout='AC50', item= O=C(Cc1c(Cl)cccc1Cl)Nc1cccc(S(=O)(=O)N2CCOCC2)c1 )
Result: 48.6 µM

Problem: # get_value(readout='AC50', item= O=C1NC(CCc2ccccc2)C(=O)N1Cc1cccc2ccccc12 (stereo not given) )
Result: > 100 µM

Problem: # get_value(readout='AC50', item= c1ccc(CN2CCN(C3CCCSc4ccccc43)CC2)cc1 (stereo not given) )
Result: 50.3 µM

Problem: # get_value(readout='AC50', item= O=C(CSc1ccccc1)Nc1cccc(NC(=O)c2ccco2)c1 )
Result: > 100 µM

Problem: # get_value(readout='AC50', item= O=C1c2ccccc2NC(c2ccc(-c3cccc([N+](=O)[O-])c3)o2)N1O (stereo not given) )
Result: > 100 µM

Problem: # get_value(readout='AC50', item= Cc1noc(C)c1NC(=O)N(C)C[C@H]1OCCCC[C@@H](C)Oc2ccc(NC(=O)Nc3cccc4ccccc34)cc2C(=O)N([C@@H](C)CO)C[C@H]1C )
Result: > 100 µM

----------
What AC50 was measured for each of the following?
Tested on: E. coli wild-type GFP strain growth, fluorescence, 24 h
TEST_DESCRIPTION: growth inhibition of wild-type GFP E. coli, dose response, h34 mutant RFP, cherry-pick (AID 977624);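 also: wild-type GFP strain co-cultured with humanized h34 ribosome RFP strain in same well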
Inconclusive results are not listed. Active and inactive are the calls of the source.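 Rule for the calls: active = compound lowering the normal-ribosome reporter at least twice as much as the humanized-ribosome reporter, growth loss under a set limit; inconclusive = no clear call, values can overlap the other calls; inactive = the rest.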

Problem: # get_value(readout='AC50', item= COc1cc(SC)ccc1C(=O)N1CCN(c2ccccc2F)CC1 )
Result: > 100 µM (inactive)

Problem: # get_value(readout='AC50', item= Cc1oc(-c2ccc(-c3ccccc3)cc2)nc1CN(C)C1CCOC1 (stereo unspecified) )
Result: > 100 µM (inactive)

Problem: # get_value(readout='AC50', item= Clc1ccc2nc(CN3CCCc4ccccc43)cn2c1 )
Result: > 100 µM (inactive)

Problem: # get_value(readout='AC50', item= O=C(Cc1c(Cl)cccc1Cl)Nc1cccc(S(=O)(=O)N2CCOCC2)c1 )
Result: > 100 µM (inactive)

Problem: # get_value(readout='AC50', item= CCOc1ccccc1/C=C/c1cc(C(=O)O)c2ccccc2n1 )
Result: > 100 µM (inactive)

Problem: # get_value(readout='AC50', item= O=C(CSc1ccccc1)Nc1cccc(NC(=O)c2ccco2)c1 )
Result: > 100 µM (inactive)
